Reported log10 vapour pressure (mmHg) values are given for each entry in this list.
# output: bare number, no unit

Examples with answers:
[[record]]
compound = "CCCCCC(=O)CCCCC"
recorded_value = -1.3

[[record]]
compound = "Clc1ccc(-c2ccccc2Cl)cc1"
recorded_value = -2.68

[[record]]
compound = "Nc1ccc(Cl)cc1"
recorded_value = -1.57


Problem: Look up log10 vapour pressure (mmHg) for this compound: O=C(Br)c1ccccc1
Solution: -0.654

Problem: What value of log10 vapour pressure (mmHg) has been reported for the following compound? CCOP(=S)(OCC)Oc1ccc(S(C)=O)cc1 (stereo not given)
Solution: -4.3

Problem: Please report the recorded log10 vapour pressure (mmHg) for CCCCCCCCCCCBr .
Solution: -1.92

Problem: // lookup log10 vapour pressure (mmHg) for O=C(O)/C=C/c1ccccc1
Solution: -4.49

Problem: What does the data say about its log10 vapour pressure (mmHg)? Entry: Ic1cccs1
Solution: 0.906

Problem: Reported log10 vapour pressure (mmHg), compound COP(=S)(Oc1cc(Cl)c(Br)cc1Cl)c1ccccc1 (stereo not given) : ____
Solution: -7.64

Problem: Param item = Clc1cc(Cl)c(-c2ccc(Cl)c(Cl)c2Cl)cc1Cl ; retrieve measured log10 vapour pressure (mmHg).
Solution: -5.42

Problem: Would you kindly share the measured log10 vapour pressure (mmHg) for Clc1cccs1 ?
Solution: 1.38

Problem: Need log10 vapour pressure (mmHg) of CCCC(=O)CCC , thanks.
Solution: 0.787

Problem: Find the recorded log10 vapour pressure (mmHg) belonging to CCOC(=O)C(C)Oc1ccc(Oc2cnc3cc(Cl)ccc3n2)cc1 (stereo not given) and report it.
Solution: -8.19

Problem: # lookup: log10 vapour pressure (mmHg) of ClC(Cl)(Cl)C(Cl)(Cl)Cl
Solution: -0.678

Problem: Return reported log10 vapour pressure (mmHg); argument: COP(=S)(OC)Oc1cc(Cl)c(Br)cc1Cl
Solution: -3.89

Problem: Recorded log10 vapour pressure (mmHg) for Cc1cc(C2CC2)nc(Nc2ccccc2)n1 , please?
Solution: -5.43

Problem: State the recorded log10 vapour pressure (mmHg) for this entry: BrC(Br)(Br)Br
Solution: -0.569

Problem: Fill in: log10 vapour pressure (mmHg) of Cc1cc(Cl)ccc1OCCCC(=O)O is ___
Solution: -6.36

Problem: Look up log10 vapour pressure (mmHg) for this compound: CC(C)c1ccccc1-c1ccccc1
Solution: -3.3

Problem: Which measured log10 vapour pressure (mmHg) value corresponds to Cc1ccc(C)c(O)c1 ?
Solution: -0.807

Problem: Look up log10 vapour pressure (mmHg): COC(=O)/C=C(\C)OP(=O)(OC)OC
Solution: -3.91

Problem: Recorded log10 vapour pressure (mmHg) of NCCCCCCO , please.
Solution: -2.62

Problem: Sample CC(=O)Oc1ccccc1[N+](=O)[O-] — what was its log10 vapour pressure (mmHg)?
Solution: -2.66

Problem: Could you tell me which log10 vapour pressure (mmHg) is on file for COC(=O)c1ccccc1 ?
Solution: -0.42

Problem: Find the recorded log10 vapour pressure (mmHg) belonging to O=C1CCCCCO1 and report it.
Solution: -0.87

Problem: // lookup log10 vapour pressure (mmHg) for CN(C)C(=O)Nc1ccc(Oc2ccc(Cl)cc2)cc1
Solution: -8.41

Problem: What log10 vapour pressure (mmHg) value was documented for this compound, FC(F)=C(F)C(F)(F)F ?
Solution: 3.69

Problem: Please give the measured log10 vapour pressure (mmHg) for this compound: Oc1cccc(O)c1O
Solution: -3.32

Problem: What measured log10 vapour pressure (mmHg) goes with CN ?
Solution: 3.42

Problem: Could you share which log10 vapour pressure (mmHg) value was measured for COC(C)(C)CC(C)=O ?
Solution: 0.342

Problem: So what does the record say about log10 vapour pressure (mmHg) for CCCCCCCl ?
Solution: 0.972

* * *

- Condition Summary: fish
Test Readout: log10 biotransformation half-life (days)
Give the figure only, with no unit attached.

[[record]]
compound = "c1ccc2cc3c(ccc4c5ccccc5ccc34)cc2c1"
recorded_value = 0.58

[[record]]
compound = "Nc1cccc2c1C(=O)c1ccccc1C2=O"
recorded_value = -0.59


Problem: I have this compound here, Clc1cc2c(c(Cl)c1Cl)Oc1c(Cl)c(Cl)c(Cl)c(Cl)c1O2 , and I need its recorded log10 biotransformation half-life (days).
Solution: 1.21

Problem: If you can, please state the reported log10 biotransformation half-life (days) value of CCOP(=S)(NC(C)C)Oc1ccccc1C(=O)OC(C)C (stereo not drawn) .
Solution: -0.51

Problem: I'd like to know its log10 biotransformation half-life (days). The compound in question is COC(=O)C(C)Oc1ccc(Oc2ncc(C(F)(F)F)cc2Cl)cc1 (stereo not drawn)
Solution: -1.08

Problem: Sample Nc1cccc(Cl)c1 — what was its log10 biotransformation half-life (days)?
Solution: -0.71

Problem: // lookup log10 biotransformation half-life (days) for COc1ccc([N+](=O)[O-])cc1
Solution: -0.95

Problem: Record request: log10 biotransformation half-life (days) value, item CCNc1cccc2ccccc12
Solution: 0.43

Problem: Look up log10 biotransformation half-life (days) for this compound: CC1(C)[C@H](C(=O)O[C@@H](C#N)c2cccc(Oc3ccccc3)c2)[C@@H]1C=C(Cl)Cl (single isomer, unassigned)
Solution: 0.7

Problem: // query log10 biotransformation half-life (days) value for entry c1ccc(Oc2ccccc2)cc1
Solution: -0.09

Problem: For the compound shown here, CC(CCl)OP(=O)(OC(C)CCl)OC(C)CCl (stereo not drawn) , give the reported log10 biotransformation half-life (days).
Solution: -1.31

Problem: Would you kindly share the measured log10 biotransformation half-life (days) for ClC(Cl)(Cl)C(Cl)(Cl)Cl ?
Solution: 0.76

Problem: // log10 biotransformation half-life (days) lookup, key: Nc1cccc2ccccc12
Solution: -0.24

* * *

Classification scheme (melting point): low interval: < 40 °C; middle interval: ≥ 40 °C and < 200 °C; high interval: ≥ 200 °C

Previously resolved entries follow.
[[record]]
molecule = "O=P(O)(O)C(Cl)(Cl)P(=O)(O)O"
label = "high interval"

[[record]]
molecule = "O=C(O)CF"
label = "low interval"


Problem: Exercise: read the entry Oc1ccc2cc(O)ccc2c1 and state which class it falls under.
Solution: high interval

Problem: GET /class?item= CCS(=O)CC
Solution: low interval

Problem: Textbook exercise: identify the category of the molecule given here, CCCCCCCC(=O)OCCCCC , according to its measured value.
Solution: low interval

Problem: Lab note: which band did CCN(CC)c1ccc2c(-c3ccccc3C(=O)O)c3ccc(N(CC)CC)cc3[o+]c2c1.[Cl-] land in?
Solution: middle interval

Problem: GET /class?item= CN(C)c1cccc(O)c1
Solution: middle interval

Problem: // bin(item) where item = CCOc1ccc(C(C)(C)COCc2cccc(Oc3ccccc3)c2)cc1
Solution: low interval

Problem: Class? Entry: COc1ccc(CCCO)cc1
Solution: low interval

Problem: Band for Nc1c(I)cc(I)c(C(=O)N(CCC(=O)O)c2ccccc2)c1I ?
Solution: middle interval

Problem: Assign a category based on measured melting point for CCSC(=O)COc1ccc(Cl)cc1C and give only the class name.
Solution: middle interval

Problem: Record C#CC(C)O (configuration not stated) — which class?
Solution: low interval

Problem: Into which category would you place CN=C(O)Oc1cccc(C)c1 ?
Solution: middle interval

Problem: Which class does CCC(C)(O)CCCC(C)C (configuration not stated) fall in?
Solution: low interval

Problem: Quick check: band for Cc1cccc2cccnc12
Solution: low interval

Problem: Quick check: band for O=C(c1ccccc1O)N1CCOCC1
Solution: middle interval

Problem: # classify by melting point band: COC(=O)Nc1nc2cc(C(=O)c3ccccc3)ccc2[nH]1
Solution: high interval

Problem: Which bin, given its melting point, does OCCCCCCCCCCCl occupy?
Solution: low interval

Problem: Entry NCCCCCCN belongs to which category?
Solution: middle interval

* * *

Test Readout: melting point (°C)
Number in °C, nothing else.

Worked cases, melting point given:
[[record]]
molecule = "O=C(Nc1ccc(Oc2ccc(Cl)cc2)c(Cl)c1)c1cc(I)cc(I)c1O"
test_readout = "melting point"
recorded_value = 169

[[record]]
molecule = "CC(Br)C(Br)CBr (centres undefined)"
test_readout = "melting point"
recorded_value = -19

[[record]]
molecule = "CC(=O)NC(Cc1c[nH]c2ccccc12)C(=O)O (centres undefined)"
test_readout = "melting point"
recorded_value = 190

[[record]]
molecule = "CCO/N=C(\\OC(=O)c1ccccc1)c1c(OC)ccc(Cl)c1OC"
test_readout = "melting point"
recorded_value = 73

[[record]]
molecule = "Cc1cccc(I)c1"
test_readout = "melting point"
recorded_value = -27.2

[[record]]
molecule = "O=C(O)CO"
test_readout = "melting point"
recorded_value = 79.5

[[record]]
molecule = "COS(=O)(=O)[O-].C[N+]1(C)CCN(CC(O)(c2ccccc2)C2CCCCC2)CC1 (centres undefined)"
test_readout = "melting point"
recorded_value = 205

[[record]]
molecule = "C=COCCCC"
test_readout = "melting point"
recorded_value = -92

[[record]]
molecule = "CCc1cccc2c3c([nH]c12)C(CC)(CC(=O)O)OCC3 (centres undefined)"
test_readout = "melting point"
recorded_value = 146

[[record]]
molecule = "Clc1ccccc1-c1nnc(-c2ccccc2Cl)nn1"
test_readout = "melting point"
recorded_value = 182


Problem: For COc1cccc(C(N)=O)c1 , what is its reported melting point?
Solution: 134

Problem: melting point lookup needed for Nc1ccc(/N=N/c2ccc(S(N)(=O)=O)cc2)c(N)c1 , thanks.
Solution: 250

Problem: Which measured melting point value corresponds to CCC(Br)CC ?
Solution: -126

Problem: Please report the recorded melting point for COC(=O)c1cc2ccccc2cc1O .
Solution: 75.5

These entries and their values trace back to the OPERA property sets (Mansouri et al. 2018).
